biological target: PI3Kγ (Homo sapiens (Human), UniProt P48736); test: TR-FRET enzymatic assay of PI3K isoforms (PI3Kγ); assay type: biochemical; settings: TR-FRET, 2×Km ATP, 2 μM PIP2, PI3Kγ at 2 nM, incubated for 30 minutes at 25° C.; read-out: γ IC50
Sequence (P48736 whole entry, canonical isoform): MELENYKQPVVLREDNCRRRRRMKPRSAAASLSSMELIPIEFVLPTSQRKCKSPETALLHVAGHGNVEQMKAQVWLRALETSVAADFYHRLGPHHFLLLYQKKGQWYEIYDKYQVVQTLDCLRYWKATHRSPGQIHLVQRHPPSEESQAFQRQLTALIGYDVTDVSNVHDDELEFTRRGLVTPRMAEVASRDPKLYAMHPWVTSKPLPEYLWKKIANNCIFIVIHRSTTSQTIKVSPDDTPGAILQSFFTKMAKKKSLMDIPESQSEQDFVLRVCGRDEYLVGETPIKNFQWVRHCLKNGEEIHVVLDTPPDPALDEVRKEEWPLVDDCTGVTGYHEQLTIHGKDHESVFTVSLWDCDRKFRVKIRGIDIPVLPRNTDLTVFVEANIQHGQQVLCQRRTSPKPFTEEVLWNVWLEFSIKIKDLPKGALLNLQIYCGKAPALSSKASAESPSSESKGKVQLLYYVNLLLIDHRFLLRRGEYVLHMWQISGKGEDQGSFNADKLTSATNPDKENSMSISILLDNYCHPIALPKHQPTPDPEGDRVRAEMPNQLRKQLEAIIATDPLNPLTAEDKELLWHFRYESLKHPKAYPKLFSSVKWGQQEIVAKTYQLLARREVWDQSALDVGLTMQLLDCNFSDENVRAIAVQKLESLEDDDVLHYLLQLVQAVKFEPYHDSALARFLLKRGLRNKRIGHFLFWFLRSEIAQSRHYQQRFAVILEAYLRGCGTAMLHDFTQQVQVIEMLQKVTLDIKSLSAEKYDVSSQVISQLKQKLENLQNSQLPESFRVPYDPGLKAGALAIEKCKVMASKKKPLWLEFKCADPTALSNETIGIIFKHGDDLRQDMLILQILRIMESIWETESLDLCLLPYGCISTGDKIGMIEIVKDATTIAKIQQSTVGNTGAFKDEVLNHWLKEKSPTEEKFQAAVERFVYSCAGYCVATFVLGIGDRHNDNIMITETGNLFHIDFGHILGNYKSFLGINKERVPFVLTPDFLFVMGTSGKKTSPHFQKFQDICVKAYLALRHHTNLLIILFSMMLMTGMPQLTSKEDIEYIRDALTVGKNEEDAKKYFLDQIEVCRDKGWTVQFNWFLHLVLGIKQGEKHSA
Sequence (Q8WYR1 whole entry partner, canonical isoform): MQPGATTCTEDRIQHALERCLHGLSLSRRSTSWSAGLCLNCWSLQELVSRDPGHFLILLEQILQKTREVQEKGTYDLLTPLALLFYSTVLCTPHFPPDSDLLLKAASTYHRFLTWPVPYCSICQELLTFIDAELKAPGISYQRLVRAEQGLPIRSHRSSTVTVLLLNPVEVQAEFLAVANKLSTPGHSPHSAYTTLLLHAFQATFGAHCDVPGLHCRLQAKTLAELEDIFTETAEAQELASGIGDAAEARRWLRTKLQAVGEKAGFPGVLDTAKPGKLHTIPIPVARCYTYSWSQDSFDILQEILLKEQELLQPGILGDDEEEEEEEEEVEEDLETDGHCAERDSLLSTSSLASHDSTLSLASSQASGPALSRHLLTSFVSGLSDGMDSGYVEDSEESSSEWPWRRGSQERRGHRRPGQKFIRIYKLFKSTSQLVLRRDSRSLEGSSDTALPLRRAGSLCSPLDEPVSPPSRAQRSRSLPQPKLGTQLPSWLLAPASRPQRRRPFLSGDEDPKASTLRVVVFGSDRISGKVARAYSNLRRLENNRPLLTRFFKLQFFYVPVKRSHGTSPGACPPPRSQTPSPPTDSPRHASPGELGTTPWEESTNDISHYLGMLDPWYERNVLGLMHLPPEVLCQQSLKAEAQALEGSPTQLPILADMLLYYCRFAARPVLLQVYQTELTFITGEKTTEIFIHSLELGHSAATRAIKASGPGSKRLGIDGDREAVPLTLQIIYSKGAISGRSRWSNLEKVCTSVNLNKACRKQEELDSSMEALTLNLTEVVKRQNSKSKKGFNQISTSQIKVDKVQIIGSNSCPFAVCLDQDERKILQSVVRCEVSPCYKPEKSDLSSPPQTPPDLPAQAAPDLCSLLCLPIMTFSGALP
READOUT_KIND: IC50 (nM)

> print(dat)
                                   molecule                                       tgt  reading
1  C[C@H](Nc1ncnc(N)c1C#N)c1nc2cccc(Cl)c2c(=O)n1-c1cccc(NC(=O)NC2CCC2)c1 [Compound 123]  PI3Kγ (Homo sapiens (Human), UniProt P48736)     2200
2  CCNC(=O)Nc1cccc(-n2c([C@H](C)Nc3ncnc(N)c3C#N)nc3cccc(Cl)c3c2=O)c1Cl (single isomer, unassigned) [Compound 95]  PI3Kγ (Homo sapiens (Human), UniProt P48736)     1000

[A] C[C@H](Nc1nc(N)nc(N)c1C#N)c1nc2cccc(Cl)c2c(=O)n1-c1cccc(C(N)=O)c1 [Compound 2]
[B] CCNC(=O)Nc1cccc(-n2c([C@H](C)Nc3ncnc4[nH]cnc34)nc3cccc(Cl)c3c2=O)c1 [Compound 91]
[C] CC(C)NC(=O)Nc1cccc(-n2c([C@H](C)Nc3ncnc(N)c3C#N)nc3cccc(Cl)c3c2=O)c1 [Compound 120]
[D] C[C@H](Nc1ncnc2[nH]cnc12)c1nc2cccc(Cl)c2c(=O)n1-c1cccc(NC(=O)Nc2ccccc2C(F)(F)F)c1 [Compound 102]
Exam item: Please rank these molecules by IC50 in descending order. In your reply, arrange the labels in the requested order.
Marked response: C, B, D, A
(C: 4800 nM, B: 1400 nM, D: 670 nM, A: 60 nM)

---

target: PI3Kδ (Homo sapiens (Human), UniProt O00329); experiment: TR-FRET enzymatic assay of PI3K isoforms (PI3Kδ); conditions: 2×Km ATP, 2 μM PIP2, incubated for 30 minutes at 25° C., read-out: δ IC50
Sequence (O00329 whole entry, canonical isoform): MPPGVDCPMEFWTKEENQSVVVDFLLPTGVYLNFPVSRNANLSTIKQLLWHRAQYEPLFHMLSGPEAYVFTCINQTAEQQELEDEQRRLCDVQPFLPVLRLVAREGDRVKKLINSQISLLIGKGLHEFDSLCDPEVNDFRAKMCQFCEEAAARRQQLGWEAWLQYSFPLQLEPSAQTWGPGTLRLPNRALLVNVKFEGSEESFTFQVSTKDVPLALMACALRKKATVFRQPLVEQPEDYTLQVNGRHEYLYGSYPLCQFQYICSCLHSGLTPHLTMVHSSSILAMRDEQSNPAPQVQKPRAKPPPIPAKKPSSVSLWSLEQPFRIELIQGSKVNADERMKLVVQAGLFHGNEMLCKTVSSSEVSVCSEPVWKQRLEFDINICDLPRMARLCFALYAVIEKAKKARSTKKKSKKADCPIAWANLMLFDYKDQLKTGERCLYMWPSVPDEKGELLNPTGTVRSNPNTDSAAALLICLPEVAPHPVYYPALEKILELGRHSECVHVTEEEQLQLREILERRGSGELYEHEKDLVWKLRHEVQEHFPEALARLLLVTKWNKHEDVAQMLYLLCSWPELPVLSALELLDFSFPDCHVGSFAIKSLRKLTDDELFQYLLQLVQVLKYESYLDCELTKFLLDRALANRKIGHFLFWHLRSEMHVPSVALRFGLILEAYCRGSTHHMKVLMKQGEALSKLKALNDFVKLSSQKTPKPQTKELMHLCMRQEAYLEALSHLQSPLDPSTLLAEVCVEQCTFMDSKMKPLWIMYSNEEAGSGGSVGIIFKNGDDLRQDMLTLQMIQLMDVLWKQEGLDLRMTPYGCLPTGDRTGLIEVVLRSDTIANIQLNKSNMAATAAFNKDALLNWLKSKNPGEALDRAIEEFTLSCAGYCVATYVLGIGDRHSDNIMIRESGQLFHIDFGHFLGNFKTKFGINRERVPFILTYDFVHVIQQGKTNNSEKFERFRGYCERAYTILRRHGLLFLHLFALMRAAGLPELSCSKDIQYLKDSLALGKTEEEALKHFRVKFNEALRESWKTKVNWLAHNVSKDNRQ
Sequence (P27986 whole entry partner, canonical isoform): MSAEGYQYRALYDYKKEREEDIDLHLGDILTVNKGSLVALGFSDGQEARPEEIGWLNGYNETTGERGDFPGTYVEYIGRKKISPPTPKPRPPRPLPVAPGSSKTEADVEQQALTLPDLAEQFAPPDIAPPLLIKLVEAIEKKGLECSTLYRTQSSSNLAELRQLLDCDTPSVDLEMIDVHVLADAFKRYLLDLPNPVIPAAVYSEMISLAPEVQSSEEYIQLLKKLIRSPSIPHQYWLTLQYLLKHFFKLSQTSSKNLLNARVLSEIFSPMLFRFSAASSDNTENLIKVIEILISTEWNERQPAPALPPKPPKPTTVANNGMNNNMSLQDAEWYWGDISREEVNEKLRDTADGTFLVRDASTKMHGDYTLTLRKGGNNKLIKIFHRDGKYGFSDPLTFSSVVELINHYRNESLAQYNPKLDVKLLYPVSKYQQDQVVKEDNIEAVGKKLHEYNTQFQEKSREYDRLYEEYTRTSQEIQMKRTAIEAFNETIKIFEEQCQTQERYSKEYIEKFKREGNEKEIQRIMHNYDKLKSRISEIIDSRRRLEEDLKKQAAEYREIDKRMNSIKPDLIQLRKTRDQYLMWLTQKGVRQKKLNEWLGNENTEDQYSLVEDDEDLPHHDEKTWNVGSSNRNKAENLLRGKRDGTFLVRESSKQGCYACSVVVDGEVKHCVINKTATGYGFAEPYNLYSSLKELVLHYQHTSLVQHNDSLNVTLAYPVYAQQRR
pIC50: −log10 of the molar value.
READOUT_KIND: pIC50

The cases that follow already have their pIC50 on record.
> print(dat)
                                   molecule  reading
1  C[C@H](Nc1ncnc(N)c1C#N)c1nc2cccc(Cl)c2c(=O)n1-c1cccc(NC(=O)Nc2ccc(Cl)c(C(F)(F)F)c2)c1     7.72
2  CCNC(=O)Nc1cccc(-n2c([C@@H](Nc3ncnc(N)c3[N+](=O)[O-])[C@@H](C)CC)nc3cccc(Cl)c3c2=O)c1     7.89

[A] C[C@H](Nc1ncnc(N)c1C#N)c1nc2cccc(Cl)c2c(=O)n1-c1cccc(NC(=O)NCCO)c1
[B] NC(=O)c1cccc(-n2c([C@@H](Nc3nc(N)nc(N)c3Cl)C3CC3)nc3c(Cl)cc(F)cc3c2=O)c1
Exam item: Endpoint returns the identifier whose pIC50 is numerically larger, either A or B . Pick one and reply with its label.
Marked response: A
(A: 8.22, B: 7.34)

[I] C[C@H](Nc1ncnc(N)c1C#N)c1nc2c(Cl)cccc2c(=O)n1-c1cccc(NC(=O)NCCCO)c1
[II] C[C@H](Nc1ncnc(N)c1C#N)c1nc2cccc(Cl)c2c(=O)n1-c1cccc(NC(=O)Nc2c(Cl)cccc2Cl)c1
Exam item: Endpoint returns the identifier whose pIC50 is numerically larger, either I or II . Pick one and reply with its label.
Marked response: II

---

biological target: PI3Kβ (Homo sapiens (Human)); assay: TR-FRET enzymatic assay of PI3K isoforms (PI3Kβ); details: TR-FRET, 2×Km ATP, 2 μM PIP2, incubated for 30 minutes at 25° C.; read-out: β IC50
READOUT_KIND: IC50 (nM)

> print(dat)
                                   molecule  readout.kind  result.unit  reading
1  C[C@H](Nc1ncnc(N)c1C#N)c1nc2cccc(Cl)c2c(=O)n1-c1cccc(NC(=O)NCCCO)c1          IC50           nM        9

[P] C[C@H](Nc1nc(N)nc(N)c1Cl)c1nc2c(C#N)cccc2c(=O)n1-c1cccc(C(N)=O)c1
[Q] CC[C@H](Nc1nc(N)nc(N)c1C#N)c1nc2cccc(C(F)F)c2c(=O)n1-c1cccc(C(N)=O)c1
[R] C[C@H](Nc1ncnc2scnc12)c1nc2cccc(Cl)c2c(=O)n1-c1cccc(NC(=O)NS(=O)(=O)C2CCCC2)c1
Exam item: Rank ascending by IC50. In your reply, arrange the labels in the requested order.
Marked response: Q, R, P

---

Target: PI3Kδ (Homo sapiens (Human))
Test: TR-FRET enzymatic assay of PI3K isoforms (PI3Kδ)
Conditions: 2×Km ATP, 2 μM PIP2, incubated for 30 minutes at 25° C., read-out: δ IC50
Experimental: The compounds of formula (I) were characterized for their enzymatic activity against the PI3K isoforms. Certain compounds of the present application, including certain compounds of formula (II) and (III) were also characterized for their enzymatic activity against PI3K isoforms. The activities were measured using a time-resolved fluorescence resonance energy transfer (TR-FRET) assay.
READOUT_KIND: IC50 (nM)

> print(dat)
                               entry.smiles  reading
1  NC(=O)c1cncc(-n2c([C@@H](Nc3nc(N)nc(N)c3Cl)C3CC3)nc3cccc(Cl)c3c2=O)c1        2

[P] C[C@H](Nc1ncnc(N)c1C#N)c1nc2cccc(Cl)c2c(=O)n1-c1cccc(NC(=O)NCC(F)(F)F)c1
[Q] CCNC(=O)Nc1cccc(-n2c([C@H](C)Oc3ncnc(N)c3C#N)nc3cccc(Cl)c3c2=O)c1
[R] C[C@H](Oc1ncnc2scnc12)c1nc2cccc(Cl)c2c(=O)n1-c1cccc(NC(=O)NC2(C(F)(F)F)CC2)c1
[S] C[C@H](Nc1ncnc(N)c1C#N)c1nc2cccc(Cl)c2c(=O)n1-c1cccc(NC(=O)NC2CCCC2)c1
[T] C[C@H](Nc1nc(N)nc(N)c1Cl)c1nc2c(Cl)cc(F)cc2c(=O)n1-c1cccc(C(N)=O)c1
Exam item: Rank ascending by IC50. In your reply, arrange the labels in the requested order.
Marked response: Q, S, P, R, T

---

Target: PI3Kβ (Homo sapiens (Human), UniProt P42338)
Sequence (P42338 whole entry, canonical isoform): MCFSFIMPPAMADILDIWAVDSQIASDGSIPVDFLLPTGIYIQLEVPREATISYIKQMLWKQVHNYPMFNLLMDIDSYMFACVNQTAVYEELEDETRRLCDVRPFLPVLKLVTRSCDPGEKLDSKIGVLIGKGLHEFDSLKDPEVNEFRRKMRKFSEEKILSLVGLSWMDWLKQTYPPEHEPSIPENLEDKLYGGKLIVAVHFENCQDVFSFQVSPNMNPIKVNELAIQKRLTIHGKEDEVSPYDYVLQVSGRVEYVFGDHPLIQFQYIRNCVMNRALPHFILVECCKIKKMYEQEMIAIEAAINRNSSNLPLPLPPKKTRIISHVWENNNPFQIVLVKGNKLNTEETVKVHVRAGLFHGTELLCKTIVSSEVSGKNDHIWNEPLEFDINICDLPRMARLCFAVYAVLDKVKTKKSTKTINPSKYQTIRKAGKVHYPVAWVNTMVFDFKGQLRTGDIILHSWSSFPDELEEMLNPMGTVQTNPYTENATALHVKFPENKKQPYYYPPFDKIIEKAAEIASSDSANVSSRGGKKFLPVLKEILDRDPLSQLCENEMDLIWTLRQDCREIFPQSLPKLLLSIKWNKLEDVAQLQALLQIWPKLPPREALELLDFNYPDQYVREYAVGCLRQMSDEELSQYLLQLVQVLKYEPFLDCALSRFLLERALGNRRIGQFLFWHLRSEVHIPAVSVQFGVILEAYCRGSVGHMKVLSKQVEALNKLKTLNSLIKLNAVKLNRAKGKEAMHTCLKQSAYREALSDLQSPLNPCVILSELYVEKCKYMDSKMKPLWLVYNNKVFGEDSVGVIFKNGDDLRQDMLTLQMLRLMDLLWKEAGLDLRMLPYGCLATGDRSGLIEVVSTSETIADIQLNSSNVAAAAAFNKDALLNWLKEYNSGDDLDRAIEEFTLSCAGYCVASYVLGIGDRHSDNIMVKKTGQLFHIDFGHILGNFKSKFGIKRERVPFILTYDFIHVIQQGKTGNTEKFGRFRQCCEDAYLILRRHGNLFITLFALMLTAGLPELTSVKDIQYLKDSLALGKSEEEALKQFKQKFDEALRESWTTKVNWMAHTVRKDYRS
Sequence (P27986 whole entry partner, canonical isoform): as the sequence (P27986 whole entry partner, canonical isoform) above
Assay: TR-FRET enzymatic assay of PI3K isoforms (PI3Kβ)
Details: TR-FRET, 2×Km ATP, 2 μM PIP2, incubated for 30 minutes at 25° C.; read-out: β IC50
Method: The compounds of formula (I) were characterized for their enzymatic activity against the PI3K isoforms. Certain compounds of the present application, including certain compounds of formula (II) and (III) were also characterized for their enzymatic activity against PI3K isoforms. The activities were measured using a time-resolved fluorescence resonance energy transfer (TR-FRET) assay.
Where a name gives a salt, the structure may show the parent alone.
READOUT_KIND: IC50 (nM)

The cases that follow already have their IC50 on record.
> print(dat)
                                   compound  reading
1  CCNC(=O)Nc1cccc(-n2c([C@H](C)Nc3ncnc(N)c3C#N)nc3cccc(OC)c3c2=O)c1 [Compound 56]     6600
2  C[C@H](Nc1ncnc(N)c1C#N)c1nc2cccc(Cl)c2c(=O)n1-c1cccc(NC(=O)Nc2cccnc2)c1 [Compound 119, trifluoroacetic acid salt]        3

[I] C[C@H](Nc1ncnc(N)c1C#N)c1nc2cccc(Cl)c2c(=O)n1-c1cccc(NC(=O)NC(C)(C)C)c1 [Compound 124]
[II] C[C@H](Nc1ncnc(N)c1C#N)c1nc2cccc(Cl)c2c(=O)n1-c1cccc(NC(=O)Nc2ccccc2C(=O)O)c1 [Compound 96]
Exam item: Endpoint returns the identifier whose IC50 is numerically larger, either I or II . Pick one and reply with its label.
Marked response: II
(II: 230 nM, I: 14 nM)

---

target: PI3Kδ (Homo sapiens (Human), UniProt O00329); experiment: TR-FRET enzymatic assay of PI3K isoforms (PI3Kδ); settings: 2×Km ATP, 2 μM PIP2, incubated for 30 minutes at 25° C., read-out: δ IC50
pIC50: −log10 of the molar value.
READOUT_KIND: pIC50

> print(dat)
                                   compound  reading
1  C[C@H](Nc1ncnc(N)c1C#N)c1nc2cccc(Cl)c2c(=O)n1-c1cccc(NC(=O)NC(C)(C)C(=O)O)c1     7.89
2  C[C@H](Oc1ncnc2scnc12)c1nc2cccc(Cl)c2c(=O)n1-c1cccc(NC(=O)NCC(F)(F)C(F)(F)F)c1     8.00
3  N#Cc1c(N)nc(N)nc1N[C@H](c1nc2c(F)ccc(Cl)c2c(=O)n1-c1cccc(C(N)=O)c1)C1CC1     9.00
4  C[C@H](Nc1ncnc(N)c1C#N)c1nc2cccc(Cl)c2c(=O)n1-c1cccc(NC(=O)Nc2ccccc2C#N)c1     7.70
5  C[C@H](Nc1ncnc(N)c1C#N)c1nc2c(F)ccc(Cl)c2c(=O)n1-c1cccc(NC(=O)NCCCO)c1     8.05
6  C[C@H](Nc1ncnc(N)c1C#N)c1nc2cccc(Cl)c2c(=O)n1-c1cccc(NC(=O)Nc2ccccc2C(=O)O)c1     8.30
7  C[C@H](Nc1ncnc(N)c1C#N)c1nc2cccc(Cl)c2c(=O)n1-c1cccc(NC(=O)NCCC(=O)O)c1     7.92
8  C[C@H](Nc1ncnc(N)c1C#N)c1nc2cccc(Cl)c2c(=O)n1-c1cccc(NC(=O)NC2(C(F)(F)F)CC2)c1     8.05
9  CCNC(=O)Nc1cccc(-n2c([C@H](C)Nc3ncnc4[nH]cnc34)nc3c(F)ccc(Cl)c3c2=O)c1     7.54

[P] CCNC(=O)Nc1cccc(-n2c([C@H](COCc3ccccc3)Nc3ncnc(N)c3C#N)nc3cccc(Cl)c3c2=O)c1
[Q] C[C@H](Nc1ncnc2[nH]cnc12)c1nc2cccc(Cl)c2c(=O)n1-c1cccc(NC(N)=O)c1
[R] Cc1c(C(N)=O)cccc1-n1c([C@H](C)Nc2nc(N)nc(N)c2C#N)nc2cccc(Cl)c2c1=O (single isomer, unassigned) [Compound 5]
[S] C[C@H](Nc1ncnc(N)c1C#N)c1nc2cccc(Cl)c2c(=O)n1-c1cccc(NC(=O)NCCCO)c1
[T] O=C(NCCCO)Nc1cccc(-n2c([C@H](COCc3ccccc3)Nc3ncnc4[nH]cnc34)nc3cccc(Cl)c3c2=O)c1
Exam item: Please rank these compounds by pIC50 in descending order. In your reply, arrange the labels in the requested order.
Marked response: R, S, P, Q, T
